Consider the following compounds; for each one, report its composite z-score.
Test system: Sam68 (KHDRBS1)
Test: Sam68 small-molecule binders, primary screen, biochemical, small-molecule microarray, 635 nm fluorescence (AID 1125);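 note: score merges 667 nm channel intensity with signal to noise over triplicate slides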
Details: small-molecule microarray binding, higher = more signal
Number, no unit, nothing else.

I am curious: what composite z-score value has been reported for "CCOC(=O)C[C@H]1[C@H](OC(=O)c2ccc(-c3ccccc3)cc2)[C@@H](NC(=O)C2CCCCC2)c2cc(OCCCO)ccc2N1C(=O)c1ccc2ccccc2n1" ?
1.3

Given the compound "CC(C)(C)OC(=O)CC[C@@]1(C(=O)N2CCOCC2)N=C(c2ccc(OCCCO)cc2)O[C@@H]1c1ccccc1" , what is its reported composite z-score?
1.31

What value of composite z-score has been recorded for this entry: "CCOC(=O)C[C@H]1[C@H](OC(=O)Cc2ccc3c(c2)OCO3)[C@@H](NC(=O)c2ccc3ccccc3c2)c2cc(OCCCO)ccc2N1C(=O)c1ccc2ccccc2n1"
0.826

Item under review: "COC(=O)c1c(CC[C@@H](CO)NC(=O)Nc2ccc(OC)cc2)oc(C(=O)Cc2ccccc2)c1C(=O)OC" . Reported composite z-score?
0.603
